target: PKR R510Q (Homo sapiens, UniProt P30613, R510Q); test: PKR Mutant Assay, AC50 against PKR R510Q; format: biochemical; settings: mutant PKR R510Q enzyme
Sequence (P30613 whole entry R510Q): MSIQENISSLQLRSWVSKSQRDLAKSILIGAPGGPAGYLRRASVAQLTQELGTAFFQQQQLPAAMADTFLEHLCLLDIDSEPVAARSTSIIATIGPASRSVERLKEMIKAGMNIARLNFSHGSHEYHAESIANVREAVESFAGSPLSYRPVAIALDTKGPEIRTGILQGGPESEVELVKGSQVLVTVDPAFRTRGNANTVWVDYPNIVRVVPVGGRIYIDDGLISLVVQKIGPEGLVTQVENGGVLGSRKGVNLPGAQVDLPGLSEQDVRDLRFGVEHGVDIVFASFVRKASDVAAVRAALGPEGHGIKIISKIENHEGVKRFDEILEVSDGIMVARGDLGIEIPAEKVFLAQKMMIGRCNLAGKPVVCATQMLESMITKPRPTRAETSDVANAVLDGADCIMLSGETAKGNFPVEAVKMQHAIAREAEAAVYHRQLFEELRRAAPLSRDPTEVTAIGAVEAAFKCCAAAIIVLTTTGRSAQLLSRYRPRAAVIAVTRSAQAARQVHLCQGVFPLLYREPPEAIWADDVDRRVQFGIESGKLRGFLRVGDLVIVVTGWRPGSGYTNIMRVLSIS
Measured Endpoint: AC50

Past entries and their recorded results:
INSERT INTO measurements (given_smiles, experimental_target, observed_measurement) VALUES
  ('Nc1nc2c(S(=O)(=O)Nc3ccc(C(=O)N4CCC(O)(c5ccccc5Cl)CC4)cc3)cc(F)cc2s1', 'PKR R510Q (Homo sapiens, UniProt P30613, R510Q)', '< 100 nM'),
  ('CC(C)CC1(O)CCN(C(=O)c2ccc(NS(=O)(=O)c3cccc4nccnc34)cc2OC(F)F)CC1', 'PKR R510Q (Homo sapiens, UniProt P30613, R510Q)', '101 to 1000 nM'),
  ('O=C(c1ccc(NS(=O)(=O)c2cccc3cccnc23)cc1OC(F)(F)F)N1CCC(O)(c2ccccc2Cl)CC1', 'PKR R510Q (Homo sapiens, UniProt P30613, R510Q)', '< 100 nM');

Next item in the queue.
The measured AC50 associated with O=C(c1ccc(NS(=O)(=O)c2cccc3cc(F)cnc23)cc1)N1CCC(O)(Cc2ccccc2)CC1 reads < 100 nM
